Origin of the recorded values: patent US9708311B2

# assay_target: human EP4 receptor (Homo sapiens (Human))
# assay_method_text: Test for antagonism of the human EP4 receptor signal (cAMP HTRF)
# Format: cell-based
# details: cells expressing hEP4, PGE2 at EC80 (0.4 nM), cAMP TR-FRET; read-out: Antagonism hEP4 IC50
The entries below come with measured log10 IC50 values attached.
On a log10 scale: recorded IC50, unit nM.

Example entries and their recorded answers appear below.
molecular_string=CCn1c2ccccc2c2cc(-c3nc4cc(-c5n[nH]c(=O)o5)ccc4n3CCN(C)C)ccc21 endpoint_label="log10 IC50" test_value=2.07
molecular_string=CCn1c2ccccc2c2cc(-c3nc4cc(C(=O)NS(=O)(=O)C5CC5)ccc4n3CCOC)ccc21 endpoint_label="log10 IC50" test_value=1.46

Request the reported log10 IC50 associated with "CCOC(=O)c1ccc2c(c1)nc(-c1ccc3c(c1)c1ccccc1n3CC)n2CCCOC" 3.23

Request the reported log10 IC50 associated with "C=CCn1c(-c2ccc3c(c2)c2ccccc2n3CC)nc2cc(C(=O)O)ccc21" 2.49

* * *

# assay_target: human EP4 receptor (Homo sapiens (Human), UniProt P35408)
# Sequence (P35408 whole entry): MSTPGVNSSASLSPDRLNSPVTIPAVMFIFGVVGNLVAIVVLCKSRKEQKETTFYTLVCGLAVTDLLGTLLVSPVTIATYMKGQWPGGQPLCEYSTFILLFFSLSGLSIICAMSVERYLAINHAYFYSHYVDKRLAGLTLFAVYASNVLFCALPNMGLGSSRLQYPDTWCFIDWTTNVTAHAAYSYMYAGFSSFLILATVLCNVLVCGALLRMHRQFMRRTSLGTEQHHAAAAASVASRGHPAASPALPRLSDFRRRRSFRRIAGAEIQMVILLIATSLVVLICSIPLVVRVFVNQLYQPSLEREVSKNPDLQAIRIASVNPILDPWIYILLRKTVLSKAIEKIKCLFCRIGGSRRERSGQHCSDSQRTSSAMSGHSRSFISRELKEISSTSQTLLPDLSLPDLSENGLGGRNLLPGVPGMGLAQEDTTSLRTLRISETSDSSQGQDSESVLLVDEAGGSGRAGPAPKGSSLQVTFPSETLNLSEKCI
# assay_method_text: Test for antagonism of the human EP4 receptor signal (cAMP HTRF)
# Format: cell-based
# details: cells expressing hEP4, PGE2 at EC80 (0.4 nM), cAMP TR-FRET; read-out: Antagonism hEP4 IC50
The entries below come with measured IC50 values attached.
// note: answer is a bare numeric in nM

Example entries and their recorded answers appear below.
molecular_string=C=CCn1c2ccccc2c2cc(-c3nc4cc(C(=O)O)ccc4n3CCOC)ccc21 result_units=nM test_value=16.5
molecular_string=CCn1c2ccccc2c2cc(-c3nc4cc(C(=O)NS(=O)(=O)c5ccc(C)cc5)ccc4n3CCOC)ccc21 result_units=nM test_value=99.5
molecular_string=CCn1c2ccccc2c2cc(-c3nc4cc(C(=O)O)ccc4n3C(C)C)ccc21 result_units=nM test_value=733

Request the reported IC50 associated with "CCn1c2ccccc2c2cc(-c3nc4cc(C#N)ccc4n3CCOC)ccc21" 421

Request the reported IC50 associated with "CCn1c2ccccc2c2cc(-c3nc4c(F)c(C(=O)O)ccc4n3CCOC)ccc21" 6.42

Request the reported IC50 associated with "CCn1c2ccc(-c3nc4cc(C(=O)O)ccc4n3CC3CC3)cc2c2cccnc21" 22.2

Request the reported IC50 associated with "CCn1c2ccccc2c2cc(-c3nc4c(Cl)c(C(=O)O)ccc4n3CC3CC3)ccc21" 19.7

Request the reported IC50 associated with "CCn1c2ccccc2c2cc(-c3nc4cc(C(=O)O)c(F)cc4n3CC3CC3)ccc21" 34.6

* * *

The entries below come with measured IC50 values attached.
# assay_target: UniProt:P35408
# assay_method_text: Test for antagonism of the human EP4 receptor signal (cAMP HTRF)
# Assay type: cell-based
# details: cells expressing hEP4, PGE2 at EC80 (0.4 nM), cAMP TR-FRET; read-out: Antagonism hEP4 IC50
// note: answer is a bare numeric in nM

molecular_string=CCn1c2ccccc2c2cc(-c3nc4cc(C(=O)NS(=O)(=O)CC(C)(C)C)ccc4n3CCOC)ccc21 test_value=16.1

Request the reported IC50 associated with "CCn1c2ccccc2c2cc(-c3nc4cc(C(=O)O)c(C)cc4n3CC3CC3)ccc21" 1180

Request the reported IC50 associated with "CCn1c2ccccc2c2cc(-c3nc4cc(C(=O)NS(=O)(=O)c5cccc(C)c5)ccc4n3CCOC)ccc21" 25.6

Request the reported IC50 associated with "O=C(O)c1ccc2c(c1)nc(-c1ccc3c(c1)c1ccccc1n3CC1CCC1)n2CC1CC1" 257

* * *

The entries below come with measured pIC50 values attached.
# assay_target: human EP4 receptor (Homo sapiens (Human))
# assay_method_text: Test for antagonism of the human EP4 receptor signal (cAMP HTRF)
# Type: cell-based
# details: cells expressing hEP4, PGE2 at EC80 (0.4 nM), cAMP TR-FRET; read-out: Antagonism hEP4 IC50
Quick note: pIC50 values are minus log10 of concentrations in mol/L.

Example entries and their recorded answers appear below.
compound="CCn1c2ccccc2c2cc(-c3nc4cc(C(=O)NS(=O)(=O)Cc5ccccc5)ccc4n3CCOC)ccc21 [Example 55]" test_value=6.93
compound="CCn1c2ccccc2c2cc(-c3nc4cc(C(=O)NS(=O)(=O)Cc5ccccc5OC(F)(F)F)ccc4n3CCOC)ccc21 [Example 65]" test_value=6.88
compound="CCn1c2ccc(C)cc2c2cc(-c3nc4c(C)c(C(=O)O)ccc4n3CCOC)ccc21 [Example 141]" test_value=7.82
compound="CCCn1c2ccccc2c2cc(-c3nc4cc(C(=O)O)ccc4n3CC3CC3)ccc21 [Example 120]" test_value=7.20

Request the reported pIC50 associated with CCn1c2ccccc2c2cc(-c3nc4cc(C(=O)O)ccc4n3CC3CC3)nc(C)c21 [Example 131] 6.32

Request the reported pIC50 associated with CCn1c2ccccc2c2cc(-c3nc4cc(C(=O)O)ccc4n3CCO)ccc21 [Example 91] 6.95

Request the reported pIC50 associated with O=C(O)c1ccc2c(c1)nc(-c1ccc3c(c1)c1ccccc1n3CC1CC1)n2CC1CC1 [Example 35] 7.47

* * *

# assay_target: human EP4 receptor (Homo sapiens (Human), UniProt P35408)
# assay_method_text: Test for antagonism of the human EP4 receptor signal (cAMP HTRF)
# Type: cell-based
# details: cells expressing hEP4, PGE2 at EC80 (0.4 nM), cAMP TR-FRET; read-out: Antagonism hEP4 IC50
// map IC50 to label using band A = under 30 nM, band B = from 30 nM up to 200 nM, band C = 200 nM and over

Examples from the recorded data:
molecular_string=CCn1c2ccccc2c2cc(-c3nc4cc(C(=O)NCC(F)(F)F)ccc4n3CCOC)ccc21 assigned_label="band B"
molecular_string=CCn1c2ccccc2c2cc(-c3nc4cc(C(=O)N(C)C)ccc4n3CC3CC3)ccc21 assigned_label="band B"
molecular_string=CCn1c2ccccc2c2cc(-c3nc4cc(-c5n[nH]c(=O)o5)ccc4n3CCOC)ccc21 assigned_label="band B"
molecular_string=CCn1c2ccc(-c3nc4c(C)c(C(=O)O)ccc4n3CCOC)cc2c2cccc(Cl)c21 assigned_label="band A"
molecular_string=CCn1c2ccccc2c2cc(-c3nc4cc(C(=O)NS(=O)(=O)CCc5cccc(Cl)c5)ccc4n3CCOC)ccc21 assigned_label="band C"
molecular_string=CCn1c2ccccc2c2cc(-c3nc4c(C)c(C(=O)O)ccc4n3CC3CC3)ccc21 assigned_label="band B"

Which class is correct for the following molecule? "CCn1c2ccccc2c2cc(-c3nc4cc(C(=O)O)ccc4n3CC3CC3)ccc21" band A

Which class is correct for the following molecule? "CCn1c2ccccc2c2cc(-c3nc4cc(C(N)=O)ccc4n3CCOC)ccc21" band B

Which class is correct for the following molecule? "CCn1c2ccccc2c2cc(-c3nc4cc(C(=O)O)ccc4n3CCCOC)ccc21" band B

* * *

# assay_target: human EP4 receptor (Homo sapiens (Human))
# assay_method_text: Test for antagonism of the human EP4 receptor signal (cAMP HTRF)
# Type: cell-based
# details: cells expressing hEP4, PGE2 at EC80 (0.4 nM), cAMP TR-FRET; read-out: Antagonism hEP4 IC50
The entries below come with measured IC50 values attached.
// note: answer is a bare numeric in nM

Example entries and their recorded answers appear below.
molecular_string=CCn1c2ccccc2c2cc(-c3nc4cc(C(=O)NS(=O)(=O)c5ccc(C)cc5)ccc4n3CCN(C)C)ccc21 endpoint_label=IC50 test_value=21.4
molecular_string=CCn1c2ccccc2c2cc(-c3nc4c(F)c(C(=O)O)ccc4n3CC3CC3)ccc21 endpoint_label=IC50 test_value=11.6
molecular_string=CCn1c(-c2ccc3c(c2)c2ccccc2n3CC)nc2cc(C(=O)OC)ccc21 endpoint_label=IC50 test_value=1030
molecular_string=CCn1c2ccccc2c2cc(-c3nc4cc(C(=O)NS(=O)(=O)C5CC5)ccc4n3CCN(C)C)ccc21 endpoint_label=IC50 test_value=87.2

Request the reported IC50 associated with "CCn1c2ccccc2c2cc(-c3nc4cc(C(=O)NS(=O)(=O)C5(C)CC5)ccc4n3CCOC)ccc21" 78.3

* * *

# assay_target: human EP4 receptor (Homo sapiens (Human), UniProt P35408)
# assay_method_text: Test for antagonism of the human EP4 receptor signal (cAMP HTRF)
# Type: cell-based
# details: cells expressing hEP4, PGE2 at EC80 (0.4 nM), cAMP TR-FRET; read-out: Antagonism hEP4 IC50
The entries below come with measured pIC50 values attached.
Quick note: pIC50 values are minus log10 of concentrations in mol/L.

molecular_string=CCn1c2ccccc2c2cc(-c3nc4cc(C(=O)N5CCC5)ccc4n3CCOC)ccc21 endpoint_label=pIC50 test_value=7.52
molecular_string=CCn1c2ccccc2c2cc(-c3nc4cc(C(=O)O)ccc4n3CCC3CC3)ccc21 endpoint_label=pIC50 test_value=7.66
molecular_string=CCn1c2ccccc2c2cc(-c3nc4cc(C(=O)NS(C)(=O)=O)ccc4n3CCOC)ccc21 endpoint_label=pIC50 test_value=7.62
molecular_string=CCOC(=O)c1ccc2c(c1)nc(-c1ccc3c(c1)c1ccccc1n3CC)n2CC1COC1 endpoint_label=pIC50 test_value=6.33
molecular_string=CCn1c2ccccc2c2cc(-c3nc4cc(-c5nnn[nH]5)ccc4n3CCOC)ccc21 endpoint_label=pIC50 test_value=7.87
molecular_string=CCn1c2ccccc2c2cc(-c3nc4cc(C(=O)O)c(OC)cc4n3CC3CC3)ccc21 endpoint_label=pIC50 test_value=5.55

Enter reported pIC50 observed with human EP4 receptor (Homo sapiens (Human), UniProt P35408) for "CCn1c2ccccc2c2cc(-c3nc4cc(C(=O)O)c(C)cc4n3CCOC)ccc21" 6.21

Enter reported pIC50 observed with human EP4 receptor (Homo sapiens (Human), UniProt P35408) for "C=CCn1c(-c2ccc3c(c2)c2ccccc2n3CC)nc2cc(C(=O)OC)ccc21" 5.51
